The measurements presented in this section are drawn from the supplement of paper PMC9112550.

# Test system: Escherichia coli TOP10;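 further: peptides expressed intracellularly from a pBAD plasmid library in pooled LB shake-flask culture, induced with 0.3% L-arabinose, DNA abundance read by NGS, three biological replicates, DESeq2 with apeglm shrinkage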
# experiment_notes: shrunken log2 fold change of peptide-encoding DNA abundance (4.5 h post-induction vs induction); higher = less antimicrobial activity (less host growth inhibition)
# condition: time post-induction: 4.5 h; library: site-saturation at positions 5, 18, 19, 20
Decide by shrunken log2 fold change: equal to or exceeding -0.05 means Met, less means Not met.

{"sequence_text": "RRIRTRPPRLPRPRPRPRQLPRP", "category_label": "Met"}
{"sequence_text": "RRIRLRPPRLPRPRPRPYAWPRP", "category_label": "Met"}
{"sequence_text": "RRIRLRPPRLPRPRPRPHGTPRP", "category_label": "Met"}
{"sequence_text": "RRIRWRPPRLPRPRPRPTMPPRP", "category_label": "Met"}
{"sequence_text": "RRIRNRPPRLPRPRPRPGAMPRP", "category_label": "Met"}
{"sequence_text": "RRIRIRPPRLPRPRPRPMSWPRP", "category_label": "Not met"}
{"sequence_text": "RRIRVRPPRLPRPRPRPRRFPRP", "category_label": "Met"}
{"sequence_text": "RRIRKRPPRLPRPRPRPPGNPRP", "category_label": "Met"}
{"sequence_text": "RRIRARPPRLPRPRPRPLCQPRP", "category_label": "Met"}
{"sequence_text": "RRIRQRPPRLPRPRPRPMWTPRP", "category_label": "Met"}
{"sequence_text": "RRIRMRPPRLPRPRPRPADWPRP", "category_label": "Met"}
{"sequence_text": "RRIRSRPPRLPRPRPRPMCNPRP", "category_label": "Not met"}
{"sequence_text": "RRIRRRPPRLPRPRPRPCMPPRP", "category_label": "Not met"}
{"sequence_text": "RRIRWRPPRLPRPRPRPNYPPRP", "category_label": "Not met"}
{"sequence_text": "RRIRRRPPRLPRPRPRPYGPPRP", "category_label": "Not met"}
{"sequence_text": "RRIRSRPPRLPRPRPRPGGSPRP", "category_label": "Met"}
{"sequence_text": "RRIRRRPPRLPRPRPRPYDVPRP", "category_label": "Not met"}
{"sequence_text": "RRIRFRPPRLPRPRPRPKYDPRP", "category_label": "Not met"}
{"sequence_text": "RRIRTRPPRLPRPRPRPARAPRP", "category_label": "Met"}
{"sequence_text": "RRIRMRPPRLPRPRPRPHLDPRP", "category_label": "Met"}
{"sequence_text": "RRIRWRPPRLPRPRPRPGEIPRP", "category_label": "Met"}
{"sequence_text": "RRIRPRPPRLPRPRPRPKEFPRP", "category_label": "Met"}
{"sequence_text": "RRIRDRPPRLPRPRPRPSLRPRP", "category_label": "Met"}
{"sequence_text": "RRIRKRPPRLPRPRPRPAWWPRP", "category_label": "Met"}
{"sequence_text": "RRIRGRPPRLPRPRPRPWQRPRP", "category_label": "Met"}
{"sequence_text": "RRIRERPPRLPRPRPRPMSSPRP", "category_label": "Met"}
{"sequence_text": "RRIRSRPPRLPRPRPRPTSGPRP", "category_label": "Met"}
{"sequence_text": "RRIRHRPPRLPRPRPRPQFYPRP", "category_label": "Not met"}
{"sequence_text": "RRIRMRPPRLPRPRPRPTKQPRP", "category_label": "Met"}
{"sequence_text": "RRIRVRPPRLPRPRPRPAADPRP", "category_label": "Met"}
{"sequence_text": "RRIRSRPPRLPRPRPRPEVVPRP", "category_label": "Met"}
{"sequence_text": "RRIRMRPPRLPRPRPRPELEPRP", "category_label": "Met"}
{"sequence_text": "RRIRFRPPRLPRPRPRPNMKPRP", "category_label": "Met"}
{"sequence_text": "RRIRCRPPRLPRPRPRPSCRPRP", "category_label": "Not met"}
{"sequence_text": "RRIRTRPPRLPRPRPRPNPPPRP", "category_label": "Met"}
{"sequence_text": "RRIRNRPPRLPRPRPRPWTVPRP", "category_label": "Not met"}
{"sequence_text": "RRIRVRPPRLPRPRPRPNWAPRP", "category_label": "Met"}
{"sequence_text": "RRIRMRPPRLPRPRPRPQVGPRP", "category_label": "Met"}
{"sequence_text": "RRIRGRPPRLPRPRPRPINQPRP", "category_label": "Not met"}
{"sequence_text": "RRIRHRPPRLPRPRPRPPALPRP", "category_label": "Met"}
{"sequence_text": "RRIRARPPRLPRPRPRPPQQPRP", "category_label": "Met"}
{"sequence_text": "RRIRFRPPRLPRPRPRPWCLPRP", "category_label": "Not met"}
{"sequence_text": "RRIRGRPPRLPRPRPRPFRNPRP", "category_label": "Met"}
{"sequence_text": "RRIRARPPRLPRPRPRPWQTPRP", "category_label": "Met"}
{"sequence_text": "RRIRTRPPRLPRPRPRPLDIPRP", "category_label": "Not met"}
{"sequence_text": "RRIRKRPPRLPRPRPRPKQHPRP", "category_label": "Met"}
{"sequence_text": "RRIRMRPPRLPRPRPRPRAMPRP", "category_label": "Met"}
{"sequence_text": "RRIRLRPPRLPRPRPRPHYCPRP", "category_label": "Not met"}
{"sequence_text": "RRIRPRPPRLPRPRPRPWILPRP", "category_label": "Not met"}
{"sequence_text": "RRIRFRPPRLPRPRPRPIVHPRP", "category_label": "Not met"}
{"sequence_text": "RRIRVRPPRLPRPRPRPNREPRP", "category_label": "Not met"}
{"sequence_text": "RRIRSRPPRLPRPRPRPRPMPRP", "category_label": "Met"}
{"sequence_text": "RRIRDRPPRLPRPRPRPPVPPRP", "category_label": "Met"}
{"sequence_text": "RRIRFRPPRLPRPRPRPCCDPRP", "category_label": "Not met"}
{"sequence_text": "RRIRHRPPRLPRPRPRPNHAPRP", "category_label": "Not met"}
{"sequence_text": "RRIRSRPPRLPRPRPRPGFIPRP", "category_label": "Not met"}
{"sequence_text": "RRIRCRPPRLPRPRPRPSQMPRP", "category_label": "Not met"}
{"sequence_text": "RRIRIRPPRLPRPRPRPCPCPRP", "category_label": "Not met"}
{"sequence_text": "RRIRHRPPRLPRPRPRPMYQPRP", "category_label": "Met"}
{"sequence_text": "RRIRGRPPRLPRPRPRPTFTPRP", "category_label": "Met"}
{"sequence_text": "RRIRKRPPRLPRPRPRPTAFPRP", "category_label": "Met"}
{"sequence_text": "RRIRDRPPRLPRPRPRPLQPPRP", "category_label": "Met"}
